For reference, IC50 measured on human GST-CLK1 (129-end) (Homo sapiens, UniProt P49759):

Ask | Which IC50 is reported for this molecule? O=C(c1ccc(Nc2cc(C3CC3)c3c(C(F)(F)F)c[nH]c3n2)c2c1OCCO2)N1CCN(C2COC2)CC1 [Example 101]
Reply | 301 to 1000 nM

Ask | If you can, please state the reported IC50 value of CCNc1cc(Nc2ccc(P3(=O)CCN(C4COC4)CC3)cc2OC)nc2[nH]cc(C#N)c12 [Example 143] .
Reply | 101 to 300 nM

Ask | # get_value(readout='IC50', item= CCNc1cc(Nc2ccc(S(=O)(=O)N3CCOCC3)c3c2OCCO3)nc2[nH]cc(C(F)(F)F)c12 [Example 99] )
Reply | 301 to 1000 nM

***
Ask | For CCNc1cc(Nc2ccc(C(=O)N3CCC(N4CCOCC4)CC3)c3c2OCO3)nc2[nH]cc(C(F)(F)F)c12 [Example 37] , what is its reported IC50?
Reply | < 100 nM

Ask | Form field: reported IC50 of CS(=O)(=O)CCNc1cc(Nc2ccc(C(=O)N3CCC(N4CCOCC4)CC3)c3c2OCCO3)nc2[nH]cc(C(F)(F)F)c12 [Example 165]
Reply | < 100 nM

Ask | So what does the record say about IC50 for CCNc1cc(Nc2ccc(P(C)(C)=O)cc2OC)nc2[nH]cc(C(F)(F)F)c12 [Example 209] ?
Reply | 301 to 1000 nM

###

Endpoint: IC50. System: human GST-DYRK1A (full length) (Homo sapiens). Items follow.
Structures can show the parent of a compound that is named as a salt.

Please review the entries below; each comes with its answer.
Ask | Lab note: need IC50 with human GST-DYRK1A (full length) (Homo sapiens) for entry CCCNc1cc(Nc2ccc(S(=O)(=O)N3CCC(N4CCOCC4)CC3)cc2OC)nc2[nH]cc(C(F)(F)F)c12 , please look it up.
Reply | < 100 nM

Ask | Query IC50 on human GST-DYRK1A (full length) (Homo sapiens) for COCCNc1cc(Nc2ccc(C(=O)N3CCOCC3)c3c2OCCO3)nc2[nH]cc(C#N)c12
Reply | < 100 nM

Ask | IC50 of CCNc1cc(Nc2ccc(C(=O)N3CCN(C4COC4)CC3)c3c2OCCO3)nc2[nH]cc(C#N)c12 on human GST-DYRK1A (full length) (Homo sapiens)?
Reply | 101 to 300 nM

Ask | Which IC50 is reported with human GST-DYRK1A (full length) (Homo sapiens) for this entry: CCCNc1cc(Nc2ccc(S(=O)(=O)N3CCOCC3)cc2OC)nc2[nH]cc(Cl)c12 ?
Reply | 301 to 1000 nM

Ask | Can you look up IC50 on human GST-DYRK1A (full length) (Homo sapiens) for CCNc1cc(Nc2ccc(C(=O)N3CC[C@H](N4CCOCC4)C3)c3c2OCC3)nc2[nH]cc(C(F)(F)F)c12 ?
Reply | < 100 nM

Ask | Find the measured IC50: item CCOc1cc(Nc2ccc(S(=O)(=O)N3CCC(N4CCOCC4)CC3)cc2OC)nc2[nH]cc(C(F)(F)F)c12 , target or system human GST-DYRK1A (full length) (Homo sapiens).
Reply | 101 to 300 nM

Ask | Item CNc1cc(Nc2ccc(S(C)(=O)=O)cc2OC)nc2[nH]cc(Cl)c12 with human GST-DYRK1A (full length) (Homo sapiens) - IC50?
Reply | 301 to 1000 nM

Ask | Entry CCNc1cc(Nc2ccc(C(=O)N3CCC(N4C[C@@H]5C[C@H]4CO5)CC3)c3c2OCC3)nc2[nH]cc(C(F)(F)F)c12 , system human GST-DYRK1A (full length) (Homo sapiens): what IC50 was measured?
Reply | < 100 nM

Continuing:
Ask | Item COc1cc(S(C)(=O)=O)ccc1Nc1cc(NC2CC2)c2c(Cl)c[nH]c2n1 with human GST-DYRK1A (full length) (Homo sapiens) - IC50?
Reply | 301 to 1000 nM

Ask | Lab request: please report IC50 under test system human GST-DYRK1A (full length) (Homo sapiens) for CCCNc1cc(Nc2ccc(S(=O)(=O)N3CCOCC3)cc2OC)nc2[nH]cc(C(F)(F)F)c12
Reply | 301 to 1000 nM

Ask | For the record CNc1cc(Nc2ccc(C(=O)N3CCOCC3)c3c2OCCO3)nc2[nH]cc(Cl)c12 [Example 56, trifluoroacetate] , what value of IC50 is listed for human GST-DYRK1A (full length) (Homo sapiens)?
Reply | 301 to 1000 nM

Ask | Checklist item: IC50 tested on human GST-DYRK1A (full length) (Homo sapiens), entry COc1cc(S(C)(=O)=O)ccc1Nc1cc(NCC(C)C)c2c(C(F)(F)F)c[nH]c2n1 , value?
Reply | 301 to 1000 nM

Ask | Missing value: IC50, human GST-DYRK1A (full length) (Homo sapiens), entry CCNc1cc(Nc2ccc(C(=O)N3CCC(N4CCOCC4)CC3)c3c2OCCO3)nc2[nH]cc(C(F)(F)F)c12 . Fill in?
Reply | 101 to 300 nM

###

target: human GST-DYRK1A (full length) (Homo sapiens, UniProt Q13627)
Structures can show the parent of a compound that is named as a salt.
Let's look at some molecules and their measured IC50.

Ask | Please tell me: IC50 of O=C(c1ccc(Nc2cc(NC3CC3)c3c(C(F)(F)F)c[nH]c3n2)c2c1OCCO2)N1CCOCC1 [Example 155, trifluoroacetate] , system human GST-DYRK1A (full length) (Homo sapiens, UniProt Q13627)?
Reply | 301 to 1000 nM

New cases:
Ask | Write down the reported IC50 of CCNc1cc(Nc2ccc(C(=O)N3CCN(CC4CC4)CC3)c3c2OCC3)nc2[nH]cc(C(F)(F)F)c12 , test system: human GST-DYRK1A (full length) (Homo sapiens, UniProt Q13627).
Reply | < 100 nM

Ask | Fill in the recorded IC50 for this molecule, with human GST-DYRK1A (full length) (Homo sapiens, UniProt Q13627) as test system: CCOCCNc1cc(Nc2ccc(C(=O)N3CCOCC3)c3c2OCCO3)nc2[nH]cc(C(F)(F)F)c12
Reply | 101 to 300 nM

Ask | Value wanted: IC50 (human GST-DYRK1A (full length) (Homo sapiens, UniProt Q13627)) of entry O=C(c1ccc(Nc2cc(NC3CCCCC3)c3c(Cl)c[nH]c3n2)c2c1OCCO2)N1CCOCC1
Reply | 301 to 1000 nM

###

biological target: DYRK2 (Homo sapiens, UniProt Q92630); construct: purchased DiscoverX; assay: scanMAX Kinase panel (DiscoverX), % control; format: binding; settings: <35% = active
Sequence (Q92630 whole entry): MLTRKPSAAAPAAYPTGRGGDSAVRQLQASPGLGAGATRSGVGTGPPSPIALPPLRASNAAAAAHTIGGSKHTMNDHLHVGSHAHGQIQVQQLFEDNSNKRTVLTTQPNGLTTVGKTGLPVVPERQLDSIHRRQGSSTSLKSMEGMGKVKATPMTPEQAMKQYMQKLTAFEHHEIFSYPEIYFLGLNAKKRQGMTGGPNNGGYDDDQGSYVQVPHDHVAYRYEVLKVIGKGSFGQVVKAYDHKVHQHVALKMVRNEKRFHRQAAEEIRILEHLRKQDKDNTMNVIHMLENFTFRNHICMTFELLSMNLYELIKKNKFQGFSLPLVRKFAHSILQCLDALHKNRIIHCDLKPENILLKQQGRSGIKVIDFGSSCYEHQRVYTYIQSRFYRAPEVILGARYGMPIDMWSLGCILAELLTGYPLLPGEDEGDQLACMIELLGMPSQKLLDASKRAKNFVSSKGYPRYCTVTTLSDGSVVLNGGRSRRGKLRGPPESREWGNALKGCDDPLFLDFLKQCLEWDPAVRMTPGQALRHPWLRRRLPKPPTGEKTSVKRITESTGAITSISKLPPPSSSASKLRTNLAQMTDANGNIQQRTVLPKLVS
Class boundaries, taken from values of remaining binding at 1 µM, are as follows: Low (below 20%), Mid (20% to below 30%), High (30% or more)

Study these solved cases before continuing.
Ask | Could you place O=C(c1ccc(Nc2cc(C3CC3)c3c(C(F)(F)F)c[nH]c3n2)c2c1CCO2)N1CC[C@H](N2CCOCC2)C1 [Example 237] in its proper category? Many thanks.
Reply | High

Ask | Place this compound in its band: CCNc1cc(Nc2ccc(S(=O)(=O)N3CCC(N4CCOCC4)CC3)c3c2OCCO3)nc2[nH]cc(C(F)(F)F)c12 [Example 96]
Reply | Mid

Ask | For CNc1cc(Nc2ccc(P3(=O)CCN(C4CC4)CC3)cc2OC)nc2[nH]cc(C(F)(F)F)c12 [Example 205] , which remaining binding at 1 µM bin applies?
Reply | Mid

Ask | Exercise: read the entry O=C(c1ccc(Nc2cc(C3CC3)c3c(C(F)(F)F)c[nH]c3n2)c2c1OCCO2)N1CCC(N2CCOCC2)CC1 [Example 221] and state which class it falls under.
Reply | Low

---
Ask | For the record O=C(c1ccc(Nc2cc(C3CC3)c3c(C(F)(F)F)c[nH]c3n2)c2c1CCO2)N1CC[C@@H](N2CCOCC2)C1 [Example 238] , report the class its remaining binding at 1 µM corresponds to.
Reply | High

Ask | Using the reported remaining binding at 1 µM, which band applies to COCCNc1cc(Nc2ccc(P3(=O)CCN(C4CC4)CC3)cc2OC)nc2[nH]cc(C(F)(F)F)c12 [Example 207] ?
Reply | Low

Ask | Categorize the following entry: CNc1cc(Nc2ccc(S(=O)(=O)N3CCC(N4CCOCC4)CC3)cc2OC)nc2[nH]cc(C(F)(F)F)c12 [Example 184]
Reply | Low

###

target: LRRK2 (G2019S) (Homo sapiens, UniProt Q5S007, G2019S); test: scanMAX Kinase panel (DiscoverX), % control; type: binding; design: purchased DiscoverX; conditions: <35% = active
Sequence (Q5S007 whole entry G2019S): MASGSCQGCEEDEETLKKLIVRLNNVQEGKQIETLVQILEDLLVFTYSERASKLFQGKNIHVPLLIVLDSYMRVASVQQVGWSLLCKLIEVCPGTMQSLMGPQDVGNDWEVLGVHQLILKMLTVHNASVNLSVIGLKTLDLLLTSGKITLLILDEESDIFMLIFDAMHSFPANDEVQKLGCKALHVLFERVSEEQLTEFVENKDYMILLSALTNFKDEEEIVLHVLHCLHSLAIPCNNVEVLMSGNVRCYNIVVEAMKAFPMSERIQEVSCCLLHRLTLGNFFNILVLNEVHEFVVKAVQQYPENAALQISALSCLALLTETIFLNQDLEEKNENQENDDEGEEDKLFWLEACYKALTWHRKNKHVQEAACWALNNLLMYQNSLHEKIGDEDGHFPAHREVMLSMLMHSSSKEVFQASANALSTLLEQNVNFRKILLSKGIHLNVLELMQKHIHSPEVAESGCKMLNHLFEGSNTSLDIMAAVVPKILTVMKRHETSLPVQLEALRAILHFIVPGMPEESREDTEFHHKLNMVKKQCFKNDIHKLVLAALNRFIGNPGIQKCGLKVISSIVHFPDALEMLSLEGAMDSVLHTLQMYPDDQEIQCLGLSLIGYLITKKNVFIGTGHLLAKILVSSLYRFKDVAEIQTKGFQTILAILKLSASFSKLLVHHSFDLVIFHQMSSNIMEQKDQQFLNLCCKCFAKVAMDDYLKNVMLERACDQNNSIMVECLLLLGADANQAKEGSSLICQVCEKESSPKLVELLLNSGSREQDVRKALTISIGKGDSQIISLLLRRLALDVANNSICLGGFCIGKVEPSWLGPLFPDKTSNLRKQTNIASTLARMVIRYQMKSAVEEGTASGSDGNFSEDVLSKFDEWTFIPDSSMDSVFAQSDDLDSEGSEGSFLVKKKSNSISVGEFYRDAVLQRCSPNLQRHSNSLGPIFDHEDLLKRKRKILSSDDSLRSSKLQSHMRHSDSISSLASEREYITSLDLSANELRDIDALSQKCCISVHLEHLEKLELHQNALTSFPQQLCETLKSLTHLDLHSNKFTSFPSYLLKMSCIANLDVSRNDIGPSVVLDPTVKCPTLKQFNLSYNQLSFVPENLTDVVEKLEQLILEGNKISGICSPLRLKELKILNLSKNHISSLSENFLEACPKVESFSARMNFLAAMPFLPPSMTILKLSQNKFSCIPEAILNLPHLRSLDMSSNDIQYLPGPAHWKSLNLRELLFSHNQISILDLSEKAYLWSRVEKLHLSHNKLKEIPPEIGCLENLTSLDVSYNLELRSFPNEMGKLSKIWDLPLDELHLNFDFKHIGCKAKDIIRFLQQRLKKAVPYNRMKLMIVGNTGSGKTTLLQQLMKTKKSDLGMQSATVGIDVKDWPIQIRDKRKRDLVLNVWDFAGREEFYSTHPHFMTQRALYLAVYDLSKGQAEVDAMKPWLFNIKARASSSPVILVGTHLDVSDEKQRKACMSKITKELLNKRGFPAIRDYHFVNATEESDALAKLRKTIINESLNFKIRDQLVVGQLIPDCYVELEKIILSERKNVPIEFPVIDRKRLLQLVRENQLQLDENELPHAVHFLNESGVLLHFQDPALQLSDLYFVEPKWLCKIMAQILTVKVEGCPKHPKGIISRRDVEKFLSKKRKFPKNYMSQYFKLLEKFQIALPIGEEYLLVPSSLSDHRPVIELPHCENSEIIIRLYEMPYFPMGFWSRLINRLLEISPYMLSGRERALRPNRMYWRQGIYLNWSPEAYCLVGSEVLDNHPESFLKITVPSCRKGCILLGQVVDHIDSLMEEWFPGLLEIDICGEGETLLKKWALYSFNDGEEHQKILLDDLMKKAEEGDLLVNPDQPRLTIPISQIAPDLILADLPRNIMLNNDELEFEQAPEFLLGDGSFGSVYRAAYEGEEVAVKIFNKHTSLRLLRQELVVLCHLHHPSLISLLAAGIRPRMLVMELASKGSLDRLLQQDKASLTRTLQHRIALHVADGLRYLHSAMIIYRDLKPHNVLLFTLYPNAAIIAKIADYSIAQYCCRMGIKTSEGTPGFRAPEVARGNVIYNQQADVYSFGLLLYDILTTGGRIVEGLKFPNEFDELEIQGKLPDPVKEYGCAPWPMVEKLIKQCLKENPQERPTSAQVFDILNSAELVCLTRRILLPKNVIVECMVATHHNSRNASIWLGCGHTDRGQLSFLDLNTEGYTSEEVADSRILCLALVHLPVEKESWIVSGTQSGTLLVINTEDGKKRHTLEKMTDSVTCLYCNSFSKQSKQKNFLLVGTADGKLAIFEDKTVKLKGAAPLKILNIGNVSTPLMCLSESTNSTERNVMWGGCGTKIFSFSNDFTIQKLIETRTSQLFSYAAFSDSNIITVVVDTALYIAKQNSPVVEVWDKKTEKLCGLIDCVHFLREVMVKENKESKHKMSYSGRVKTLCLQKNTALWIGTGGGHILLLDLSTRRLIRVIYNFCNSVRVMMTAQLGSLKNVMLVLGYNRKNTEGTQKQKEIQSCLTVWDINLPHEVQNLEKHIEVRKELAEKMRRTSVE
Field 'label' (enum: t / f). Set to t when remaining binding at 1 µM is strictly under 20%; else f.

Ask | API: query returns whether the compound falls strictly under 20% in remaining binding at 1 µM. Query: CCNc1cc(Nc2ccc(C(=O)N3CCC(N4C[C@@H]5C[C@H]4CO5)CC3)c3c2OCC3)nc2[nH]cc(C(F)(F)F)c12 [Example 105]
Reply | t

Please examine the following record next.
Ask | remaining binding at 1 µM under 20%? Item: O=C(c1ccc(Nc2cc(C3CC3)c3c(C(F)(F)F)c[nH]c3n2)c2c1CCO2)N1CC[C@@H](N2CCOCC2)C1 [Example 238]
Reply | f

Data provenance is patent US12240844B2.
